Measured values drawn from ChEMBL document CHEMBL4732061 for this set.

# Test system: MCF7
# Protocol Notes: Cytotoxicity against human MCF7 cells assessed as reduction in cell viability incubated for 24 to 48 hrs by CCK-8 assay
# Format: functional, cell-based
Record form. Attribute: IC50. Fill in for each entry.

[
  {
    "Smiles Representation": "COc1cc2c(cc1OC)CN(CCCC(=O)c1c(C)c(OC)c(OC)c(OC)c1OC)CC2",
    "Result": "> 100 µM"
  },
  {
    "Smiles Representation": "COc1cc2c(cc1OC)CN(CCCCC(=O)c1c(C)c(OC)c(OC)c(OC)c1OC)CC2",
    "Result": "> 100 µM"
  }
]

Now consider a different compound.
Q: Determine reported IC50 for COc1cc2c(cc1OC)CN(CCCCCC(=O)c1c(C)c(OC)c(OC)c(OC)c1OC)CC2 ; test system: MCF7.
Ans: > 100 µM
